- systemTested: T1, human IL-23 (Sino Biological, CT048-H08H) (human, UniProt Q9NPF7 20-189; P29460 23-328)
- T1 construct: also called human IL-23 protein; Human IL-23 p19
- T1 sequence (looked up) 1: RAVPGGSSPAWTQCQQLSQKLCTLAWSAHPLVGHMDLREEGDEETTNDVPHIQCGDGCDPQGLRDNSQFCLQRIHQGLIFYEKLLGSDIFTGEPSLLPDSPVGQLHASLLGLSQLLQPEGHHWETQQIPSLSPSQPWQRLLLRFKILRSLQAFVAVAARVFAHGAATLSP
- T1 sequence (looked up) 2: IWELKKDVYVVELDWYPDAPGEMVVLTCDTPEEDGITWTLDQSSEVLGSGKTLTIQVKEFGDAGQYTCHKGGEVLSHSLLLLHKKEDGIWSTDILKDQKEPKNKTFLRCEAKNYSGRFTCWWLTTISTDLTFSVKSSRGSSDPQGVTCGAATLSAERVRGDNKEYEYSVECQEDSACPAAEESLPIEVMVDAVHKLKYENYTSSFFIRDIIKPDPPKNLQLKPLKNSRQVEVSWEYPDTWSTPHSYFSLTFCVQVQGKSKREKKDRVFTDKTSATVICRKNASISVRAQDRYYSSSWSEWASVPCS
- procedureDetails: SPR (Biacore), Protein A capture of sample, 1:1 model
The following binders are listed with their measured Kd values.
Answer as a quantity: numeral, then unit.

Use the examples below as a reference point.
Reported Kd for Ch29 (antibody, human IgG1, kappa, L234A L235A, V domains shown, chimeric: murine variable regions on hIgG1/hkappa; also called chimeric antibody of mAb29) VH: QVQLKESGPGLVAPSQSLSITCTVSGFSLTSYAISWVRQPPGKGLEWLGVIWTGGGTNYNSGIKSRLTISKDNSKSQVFLNMNSLQTEDTARYYCVREGDYGSYAGAMDYWGQGTSVTVSS VL: DIVLTQSPASLAVSLGQRATISCRASESVDYYGISSMHWFQQKPGQPPKLLIYRASNLESGIPARFSGSGSRTDFTLTINRVETDDVATYYCQQANKDPYTFGGGTKLEIKR was 0.0207 nM

Reported Kd for Hu38-3 (antibody, human IgG1, kappa, L234A L235A, V domains shown, humanized mAb38, IgG1/kappa) VH: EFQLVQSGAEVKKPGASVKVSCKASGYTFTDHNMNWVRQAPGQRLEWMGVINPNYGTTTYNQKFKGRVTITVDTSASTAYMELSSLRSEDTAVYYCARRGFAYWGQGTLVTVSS VL: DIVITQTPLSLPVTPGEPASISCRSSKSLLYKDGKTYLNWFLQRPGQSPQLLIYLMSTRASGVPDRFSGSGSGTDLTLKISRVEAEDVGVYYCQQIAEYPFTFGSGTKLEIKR was 0.113 nM

Reported Kd for Ch38 (antibody, human IgG1, kappa, L234A L235A, V domains shown, chimeric: murine variable regions on hIgG1/hkappa; also called chimeric antibody of mAb38) VH: EFQLQQSGPELVKPGASVKISCKASGYSFTDHNMNWVKQSNGKSLEWIGVINPNYGTTTYNQKFKGKATLTVDQSSSTAYMQLNILTSEDSAVYYCARRGFAYWGQGTLVTVSA VL: DIVISQDELSNPVTSGESVSISCRSSKSLLYKDGKTYLNWFLQRPGQSPQLLIYLMSTRASGVSDRFSGSGSGTDLTLEISRVKAEDVGVYYCQQIAEYPFTFGSGTKLEIKR was 0.0901 nM

Reported Kd for Hu38-11 (antibody, human IgG1, kappa, L234A L235A, V domains shown, humanized mAb38, IgG1/kappa) VH: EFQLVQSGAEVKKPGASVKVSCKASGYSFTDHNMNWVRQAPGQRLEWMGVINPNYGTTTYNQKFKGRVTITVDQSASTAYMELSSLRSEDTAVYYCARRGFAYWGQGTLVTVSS VL: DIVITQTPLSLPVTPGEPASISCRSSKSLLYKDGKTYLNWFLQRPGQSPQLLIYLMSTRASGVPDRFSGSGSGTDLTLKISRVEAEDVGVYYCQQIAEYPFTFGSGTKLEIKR was 0.176 nM

***
Reported Kd for Hu38-8 (antibody, human IgG1, kappa, L234A L235A, V domains shown, humanized mAb38, IgG1/kappa) VH: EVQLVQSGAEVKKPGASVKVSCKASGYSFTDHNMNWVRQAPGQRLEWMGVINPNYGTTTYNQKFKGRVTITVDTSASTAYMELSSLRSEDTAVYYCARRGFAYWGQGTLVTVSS VL: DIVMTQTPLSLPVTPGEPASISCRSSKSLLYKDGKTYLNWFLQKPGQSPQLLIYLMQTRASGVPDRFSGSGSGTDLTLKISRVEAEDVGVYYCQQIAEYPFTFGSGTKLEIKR was 0.168 nM
